Molecular target: GlcNAc(b1-3)Gal(b1-4)GlcNAc(b1-3)Gal(b1-4)GlcNAc(b1-3)Gal(b1-4)GlcNAc(b1-3)Gal(b1-4)GlcNAc(b1-2)Man(a1-3)[GlcNAc(b1-3)Gal(b1-4)GlcNAc(b1-3)Gal(b1-4)GlcNAc(b1-3)Gal(b1-4)GlcNAc(b1-3)Gal(b1-4)GlcNAc(b1-2)Man(a1-6)]Man(b1-4)GlcNAc(b1-4)[Fuc(a1-6)]GlcNAc
Assay: glycan array binding signal (z-score within array); higher = stronger binding
Conditions: glycan notation: IUPAC condensed, linker removed
The full list was thinned out, with the strongest signals kept by preference.
READOUT KIND: glycan array binding signal (z-score)
Answers are plain numbers.

Per the record, rMpL (Macrolepiota procera) (protein) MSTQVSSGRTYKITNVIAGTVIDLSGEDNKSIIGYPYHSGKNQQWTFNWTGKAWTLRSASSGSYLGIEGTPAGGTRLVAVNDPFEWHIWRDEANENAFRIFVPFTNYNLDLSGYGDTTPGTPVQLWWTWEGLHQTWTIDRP has glycan array binding signal (z-score) of -0.17
